- System: 598228-144-R-J1-PDC complex spheroid viability
- PROCEDURE_DETAILS: Anticancer human tumor 598228-144-R-J1-PDC patient-derived serous endometrial adenocarcinoma cell line growth inhibition [GQUAD]
- TEST_PARAMETERS: second compound 3.16 µM; first compound 0.1 µM; hits give low values
- Text: DNA G-quadruplex Stabilizer Agents in Combinations in Complex Spheroids A high-throughput screen of multi-cell type tumor spheroids was designed to identify active combinations of DNA G-quadruplex stabilizer agents and targeted small molecules. […] Compounds. […] If the clinical Cmax for an agent had not been determined, the highest concentration tested was 10 microM. […]
What viability, T/C was measured for each of the following?
One number for each entry, in %.

COMPOUND	viability, T/C [%]
COc1ccc([C@@H](O)c2cc(-c3ncnc4cc(N5CCOCC5)ccc34)c(F)cc2Cl)nn1 + CN(C)c1ccc(Nc2c3ccc(NC(=O)CCN4CCCC4)cc3nc3cc(NC(=O)CCN4CCCC4)ccc23)cc1	108
C=CCn1c(=O)c2cnc(Nc3ccc(N4CCN(C)CC4)cc3)nc2n1-c1cccc(C(C)(C)O)n1 + CN(C)c1ccc(Nc2c3ccc(NC(=O)CCN4CCCC4)cc3nc3cc(NC(=O)CCN4CCCC4)ccc23)cc1	88.3
O=C(c1cc(Cc2n[nH]c(=O)c3ccccc23)ccc1F)N1CCN(C(=O)C2CC2)CC1 + CN(C)c1ccc(Nc2c3ccc(NC(=O)CCN4CCCC4)cc3nc3cc(NC(=O)CCN4CCCC4)ccc23)cc1	91.8
CC1COCCN1c1cc(C2(O)CC3CCC(C2)O3)c2cnn(-c3ccn[nH]3)c2n1 (stereo not given) + Cc1[nH]c2ccc(F)cc2c1-c1nc2c3cccnc3c3ncccc3c2[nH]1	38.8

Below: the item to evaluate.
Enquiry: Which viability, T/C value belongs to O=c1[nH]cc(F)c(=O)[nH]1 + Cc1cnc(CNC(=O)c2c(=O)c3ccc(N4CCCN(C)CC4)nc3n3c2sc2ccccc23)cn1 ?
Return: 59.2

----------
- System: 598228-144-R-J1-PDC complex spheroid viability
- PROCEDURE_DETAILS: Anticancer human tumor 598228-144-R-J1-PDC cell line growth inhibition [GQUAD];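 also: spheroids exposed to the agents for one week before reading; percent of vehicle DMSO control viability so 100% = untreated growth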
- TEST_PARAMETERS: second compound 0.316 µM; first compound 1 µM; hits give low values
QUANTITY_MEASURED: viability, T/C (%)
Numbers only, in %.

COMPOUND	UNIT_SYMBOL	viability, T/C
O=c1[nH]cc(F)c(=O)[nH]1 + Cc1cnc(CNC(=O)c2c(=O)c3ccc(N4CCCN(C)CC4)nc3n3c2sc2ccccc23)cn1	%	66.3
COc1cccc2c1C(=O)c1c(O)c3c(c(O)c1C2=O)CC(O)(C(=O)CO)CC3OC1CC(N)C(O)C(C)O1 (stereo not drawn) + CN(C)c1ccc(Nc2c3ccc(NC(=O)CCN4CCCC4)cc3nc3cc(NC(=O)CCN4CCCC4)ccc23)cc1	%	42.2

Below: the item to evaluate.
Enquiry: Which viability, T/C value belongs to C#Cc1c(F)ccc2cc(O)cc(-c3ncc4c(N5CC6CCC(C5)N6)nc(OCC56CCCN5CC(F)C6)nc4c3F)c12 (stereo not drawn) + Cc1cnc(CNC(=O)c2c(=O)c3ccc(N4CCCN(C)CC4)nc3n3c2sc2ccccc23)cn1 ?
Return: 55.4

----------
- System: 598228-144-R-J1-PDC complex spheroid viability
- PROCEDURE_DETAILS: Anticancer human tumor 598228-144-R-J1-PDC cell line growth inhibition [GQUAD];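 also: spheroids exposed to the agents for one week before reading; percent of vehicle DMSO control viability so 100% = untreated growth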
- TEST_PARAMETERS: second compound 1 µM; first compound 0.000999 µM; hits give low values
Doc: threshold 70% (exclusive). Items with viability, T/C beneath it return TRUE; others return FALSE.

Enquiry: A record lists Cn1ncnc1[C@H]1c2n[nH]c(=O)c3cc(F)cc(c23)N[C@@H]1c1ccc(F)cc1 + CN(C)c1ccc(Nc2c3ccc(NC(=O)CCN4CCCC4)cc3nc3cc(NC(=O)CCN4CCCC4)ccc23)cc1 . Is its viability, T/C below 70%?
Return: FALSE

Enquiry: A record lists CCc1c2c(nc3ccc(O)cc13)-c1cc3c(c(=O)n1C2)COC(=O)[C@]3(O)CC + Cc1[nH]c2ccc(F)cc2c1-c1nc2c3cccnc3c3ncccc3c2[nH]1 . Is its viability, T/C below 70%?
Return: TRUE

Enquiry: A record lists CC[C@@]1(O)C(=O)OCc2c1cc1n(c2=O)Cc2cc3c(CN(C)C)c(O)ccc3nc2-1 + CN(C)c1ccc(Nc2c3ccc(NC(=O)CCN4CCCC4)cc3nc3cc(NC(=O)CCN4CCCC4)ccc23)cc1 . Is its viability, T/C below 70%?
Return: FALSE

Enquiry: A record lists CCc1c2c(nc3ccc(O)cc13)-c1cc3c(c(=O)n1C2)COC(=O)[C@]3(O)CC + CN(C)c1ccc(Nc2c3ccc(NC(=O)CCN4CCCC4)cc3nc3cc(NC(=O)CCN4CCCC4)ccc23)cc1 . Is its viability, T/C below 70%?
Return: TRUE

----------
- System: 598228-144-R-J1-PDC complex spheroid viability
- PROCEDURE_DETAILS: Anticancer human tumor 598228-144-R-J1-PDC cell line growth inhibition [GQUAD]; active = viability on the fitted dose curve at most 10% of control; inactive = the rest;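 also: spheroids exposed to the agents for one week before reading; percent of vehicle DMSO control viability so 100% = untreated growth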
- TEST_PARAMETERS: second compound 0.0316 µM; first compound 10 µM
Pick one and only one: label 1 for active, label 0 for inactive

Observe how each entry below is paired with its result.
MOLECULE	LABEL_VALUE
O=C(NO)c1cnc(N2CCN(S(=O)(=O)c3ccc4ccccc4c3)CC2)nc1 + Cc1[nH]c2ccc(F)cc2c1-c1nc2c3cccnc3c3ncccc3c2[nH]1	label 1
O=C(c1cc(Cc2n[nH]c(=O)c3ccccc23)ccc1F)N1CCN(C(=O)C2CC2)CC1 + Cc1[nH]c2ccc(F)cc2c1-c1nc2c3cccnc3c3ncccc3c2[nH]1	label 0
CC(C)(O)C1CCC(Nc2ccc3ncc(-c4cccc(C(F)(F)F)c4)n3n2)CC1 (stereo not given) + CN(C)c1ccc(Nc2c3ccc(NC(=O)CCN4CCCC4)cc3nc3cc(NC(=O)CCN4CCCC4)ccc23)cc1	label 0
CC1COCCN1c1cc(C2(O)CC3CCC(C2)O3)c2cnn(-c3ccn[nH]3)c2n1 (stereo not given) + Cc1[nH]c2ccc(F)cc2c1-c1nc2c3cccnc3c3ncccc3c2[nH]1	label 0
CC(C)n1c(=O)n(C)c2cnc3cc(F)c(-c4ccc(OCCCN5CCCCC5)nc4)cc3c21 + Cc1cnc(CNC(=O)c2c(=O)c3ccc(N4CCCN(C)CC4)nc3n3c2sc2ccccc23)cn1	label 0
COc1cc(C2c3cc4c(cc3C(OC3OC5COC(C)OC5C(O)C3O)C3COC(=O)C23)OCO4)cc(OC)c1O (stereo not given) + CN(C)c1ccc(Nc2c3ccc(NC(=O)CCN4CCCC4)cc3nc3cc(NC(=O)CCN4CCCC4)ccc23)cc1	label 0

Enquiry: Please share the test call associated with CC(C)n1c(=O)n(C)c2cnc3cc(F)c(-c4ccc(OCCCN5CCCCC5)nc4)cc3c21 + Cc1[nH]c2ccc(F)cc2c1-c1nc2c3cccnc3c3ncccc3c2[nH]1 .
Return: label 0

Enquiry: Please share the test call associated with C#Cc1c(F)ccc2cc(O)cc(-c3ncc4c(N5CC6CCC(C5)N6)nc(OCC56CCCN5CC(F)C6)nc4c3F)c12 (stereo not given) + Cc1cnc(CNC(=O)c2c(=O)c3ccc(N4CCCN(C)CC4)nc3n3c2sc2ccccc23)cn1 .
Return: label 0

Enquiry: Please share the test call associated with COc1ccc([C@@H](O)c2cc(-c3ncnc4cc(N5CCOCC5)ccc34)c(F)cc2Cl)nn1 + CN(C)c1ccc(Nc2c3ccc(NC(=O)CCN4CCCC4)cc3nc3cc(NC(=O)CCN4CCCC4)ccc23)cc1 .
Return: label 0

Enquiry: Please share the test call associated with C=CCn1c(=O)c2cnc(Nc3ccc(N4CCN(C)CC4)cc3)nc2n1-c1cccc(C(C)(C)O)n1 + CN(C)c1ccc(Nc2c3ccc(NC(=O)CCN4CCCC4)cc3nc3cc(NC(=O)CCN4CCCC4)ccc23)cc1 .
Return: label 0

Enquiry: Please share the test call associated with CC1COCCN1c1cc(C2(S(C)(=N)=O)CC2)nc(-c2ccnc3[nH]ccc23)n1 (stereo not given) + CN(C)c1ccc(Nc2c3ccc(NC(=O)CCN4CCCC4)cc3nc3cc(NC(=O)CCN4CCCC4)ccc23)cc1 .
Return: label 0

Enquiry: Please share the test call associated with COc1cc(C2c3cc4c(cc3C(OC3OC5COC(C)OC5C(O)C3O)C3COC(=O)C23)OCO4)cc(OC)c1O (stereo not given) + Cc1[nH]c2ccc(F)cc2c1-c1nc2c3cccnc3c3ncccc3c2[nH]1 .
Return: label 0

Enquiry: Please share the test call associated with C=CCn1c(=O)c2cnc(Nc3ccc(N4CCN(C)CC4)cc3)nc2n1-c1cccc(C(C)(C)O)n1 + Cc1[nH]c2ccc(F)cc2c1-c1nc2c3cccnc3c3ncccc3c2[nH]1 .
Return: label 0

Enquiry: Please share the test call associated with Cc1cccc(N(C)C(=O)C2C(O)CCN2c2nc(C)cc(C(F)(F)F)c2C#N)c1 (stereo not given) + Cc1cnc(CNC(=O)c2c(=O)c3ccc(N4CCCN(C)CC4)nc3n3c2sc2ccccc23)cn1 .
Return: label 0

Enquiry: Please share the test call associated with C=CC(=O)N1CCN(c2nc(=O)n(-c3c(C)ccnc3C(C)C)c3nc(-c4c(O)cccc4F)c(F)cc23)C(C)C1 (stereo not given) + CN(C)c1ccc(Nc2c3ccc(NC(=O)CCN4CCCC4)cc3nc3cc(NC(=O)CCN4CCCC4)ccc23)cc1 .
Return: label 0
